# experimental.system: HeLa cell extract proteins (Homo sapiens, UniProt P26447)
# Construct: endogenous in cells; host or cells: HeLa cell extract
# Sequence (P26447 whole entry): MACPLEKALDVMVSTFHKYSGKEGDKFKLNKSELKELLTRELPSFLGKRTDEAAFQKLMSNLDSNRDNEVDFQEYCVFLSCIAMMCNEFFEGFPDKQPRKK
# Type: binding
# condition.notes: protein S100A4; HeLa

| molecule | fold changes relative to vehicle control |
| --- | --- |
| CCCCCCOc1cccc(Cc2cnc(N)nc2N)c1 | 1.43 |
| Nc1nc2c(c(=O)[nH]1)N(C=O)C(CNc1ccc(C(=O)N[C@@H](CCC(=O)O)C(=O)O)cc1)CN2 (stereo partly drawn) | 0.95 |
| NCCOCCOCC(=O)Nc1nc2ncc(CNc3ccc(C(=O)NC(CCC(=O)O)C(=O)O)cc3)nc2c(=O)[nH]1 (stereo not drawn) | 1.18 |
| NCCCNc1ccc(C(=O)NC(CCC(=O)O)C(=O)O)cc1 (stereo not drawn) | 1.03 |
| CCCCCCOc1ccc(Cc2cnc(N)nc2N)cc1 | 0.83 |
| Nc1nc2cccc(-c3ccccc3)c2n1Cc1ccc(Cl)c(Cl)c1 | 1.15 |

----------
# experimental.system: HeLa cell extract proteins (Homo sapiens)
# Construct: endogenous in cells; host or cells: HeLa cell extract
# Type: binding
# condition.notes: protein FSCN1; HeLa
endpoint.label: fold changes relative to vehicle control

| compound | endpoint.label | value.measured |
| --- | --- | --- |
| Nc1nc2c(c(=O)[nH]1)N(C=O)C(CNc1ccc(C(=O)N[C@@H](CCC(=O)O)C(=O)O)cc1)CN2 (stereo partly drawn) | fold changes relative to vehicle control | 0.95 |
| CCCCCCOc1ccc(Cc2cnc(N)nc2N)cc1 | fold changes relative to vehicle control | 1.28 |
| NCCCNc1ccc(C(=O)NC(CCC(=O)O)C(=O)O)cc1 (stereo not drawn) | fold changes relative to vehicle control | 0.78 |
| NCCOCCOCC(=O)Nc1nc2ncc(CNc3ccc(C(=O)NC(CCC(=O)O)C(=O)O)cc3)nc2c(=O)[nH]1 (stereo not drawn) | fold changes relative to vehicle control | 1.42 |
| CCCCCCOc1cccc(Cc2cnc(N)nc2N)c1 | fold changes relative to vehicle control | 1.96 |
| Nc1nc2cccc(-c3ccccc3)c2n1Cc1ccc(Cl)c(Cl)c1 | fold changes relative to vehicle control | 0.96 |

----------
# experimental.system: HeLa cell extract proteins (Homo sapiens, UniProt Q9UI12)
# Construct: endogenous in cells; host or cells: HeLa cell extract
# Sequence (Q9UI12 whole entry): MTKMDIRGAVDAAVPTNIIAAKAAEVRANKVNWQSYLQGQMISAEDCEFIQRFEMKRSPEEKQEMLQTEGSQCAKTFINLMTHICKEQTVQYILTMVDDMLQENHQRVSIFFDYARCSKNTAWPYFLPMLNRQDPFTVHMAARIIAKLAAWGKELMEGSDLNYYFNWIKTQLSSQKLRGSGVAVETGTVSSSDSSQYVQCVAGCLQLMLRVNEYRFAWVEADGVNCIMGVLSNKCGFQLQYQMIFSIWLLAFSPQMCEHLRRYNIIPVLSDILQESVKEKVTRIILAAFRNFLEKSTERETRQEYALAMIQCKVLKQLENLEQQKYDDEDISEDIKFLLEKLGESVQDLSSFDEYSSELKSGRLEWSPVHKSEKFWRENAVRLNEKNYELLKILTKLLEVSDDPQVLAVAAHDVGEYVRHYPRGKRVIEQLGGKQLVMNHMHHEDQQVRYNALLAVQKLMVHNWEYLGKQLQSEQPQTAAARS
# Assay type: binding
# condition.notes: HeLa; protein ATP6V1H
# Lookup of reported fold changes relative to vehicle control keyed by entry

| compound | fold changes relative to vehicle control |
| --- | --- |
| CCCCCCOc1cccc(Cc2cnc(N)nc2N)c1 | 1.21 |
| Nc1nc2c(c(=O)[nH]1)N(C=O)C(CNc1ccc(C(=O)N[C@@H](CCC(=O)O)C(=O)O)cc1)CN2 (stereo partly drawn) | 1.04 |
| NCCOCCOCC(=O)Nc1nc2ncc(CNc3ccc(C(=O)NC(CCC(=O)O)C(=O)O)cc3)nc2c(=O)[nH]1 (stereo not drawn) | 1.13 |
| NCCCNc1ccc(C(=O)NC(CCC(=O)O)C(=O)O)cc1 (stereo not drawn) | 1.01 |
| Nc1nc2cccc(-c3ccccc3)c2n1Cc1ccc(Cl)c(Cl)c1 | 1.17 |
| CCCCCCOc1ccc(Cc2cnc(N)nc2N)cc1 | 1.24 |

----------
# experimental.system: HeLa cell extract proteins (Homo sapiens)
# Construct: endogenous in cells; host or cells: HeLa cell extract
# Format: binding
# condition.notes: protein RUVBL2; HeLa
Values of fold changes relative to vehicle control greater than or equal to 1 map to Yes; values below map to No.

| compound | label |
| --- | --- |
| Nc1nc2c(c(=O)[nH]1)N(C=O)C(CNc1ccc(C(=O)N[C@@H](CCC(=O)O)C(=O)O)cc1)CN2 (stereo partly drawn) | No |
| CCCCCCOc1ccc(Cc2cnc(N)nc2N)cc1 | Yes |
| NCCCNc1ccc(C(=O)NC(CCC(=O)O)C(=O)O)cc1 (stereo not drawn) | No |
| CCCCCCOc1cccc(Cc2cnc(N)nc2N)c1 | Yes |
| NCCOCCOCC(=O)Nc1nc2ncc(CNc3ccc(C(=O)NC(CCC(=O)O)C(=O)O)cc3)nc2c(=O)[nH]1 (stereo not drawn) | Yes |
